# tgt: ACLY (Homo sapiens (Human), UniProt P53396)
# Sequence (P53396 whole entry): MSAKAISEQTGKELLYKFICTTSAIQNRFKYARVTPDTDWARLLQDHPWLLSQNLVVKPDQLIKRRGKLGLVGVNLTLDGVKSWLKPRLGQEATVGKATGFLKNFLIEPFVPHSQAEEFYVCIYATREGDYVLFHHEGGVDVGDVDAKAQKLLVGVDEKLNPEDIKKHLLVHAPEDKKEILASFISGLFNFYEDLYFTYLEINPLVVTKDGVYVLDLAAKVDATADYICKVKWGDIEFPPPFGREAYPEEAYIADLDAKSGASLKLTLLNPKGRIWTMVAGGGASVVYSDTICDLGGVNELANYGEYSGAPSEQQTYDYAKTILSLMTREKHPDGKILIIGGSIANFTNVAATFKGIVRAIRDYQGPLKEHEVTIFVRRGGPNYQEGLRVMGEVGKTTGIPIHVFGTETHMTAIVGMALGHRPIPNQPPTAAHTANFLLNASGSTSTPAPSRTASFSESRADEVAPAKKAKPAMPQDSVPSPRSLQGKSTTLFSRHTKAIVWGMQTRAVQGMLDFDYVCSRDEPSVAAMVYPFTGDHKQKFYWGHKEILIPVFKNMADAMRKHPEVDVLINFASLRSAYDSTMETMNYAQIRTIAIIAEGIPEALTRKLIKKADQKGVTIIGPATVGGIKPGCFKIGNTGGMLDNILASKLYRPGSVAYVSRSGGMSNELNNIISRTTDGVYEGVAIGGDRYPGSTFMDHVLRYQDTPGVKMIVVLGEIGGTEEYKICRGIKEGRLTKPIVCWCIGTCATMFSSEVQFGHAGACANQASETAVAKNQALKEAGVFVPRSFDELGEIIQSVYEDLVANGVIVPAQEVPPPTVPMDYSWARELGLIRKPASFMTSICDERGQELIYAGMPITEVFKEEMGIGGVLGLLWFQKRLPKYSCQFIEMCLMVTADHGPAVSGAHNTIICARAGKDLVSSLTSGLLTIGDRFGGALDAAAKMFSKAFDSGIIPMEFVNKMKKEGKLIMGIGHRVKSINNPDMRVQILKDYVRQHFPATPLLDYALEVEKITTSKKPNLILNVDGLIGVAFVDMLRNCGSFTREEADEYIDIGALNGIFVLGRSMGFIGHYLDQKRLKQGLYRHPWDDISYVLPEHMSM
# experiment-summary: Human ACLY (hACLY) RF/MS activity assay
# Assay type: biochemical
# experimental-setup: 1 nM hACLY; 30 min pre-incubation; 15 μM Coenzyme A, 50 μM ATP, 50 μM citrate; CoA to Acetyl-CoA by RF/MS; read-out: RFMS IC50 GMean
pIC50: −log10 of the molar value.
pIC50 values, listed per item

The cases that follow already have their pIC50 on record.
{"structure-smiles": "O=C1OCCc2ccccc2-c2cc(c(F)cc2F)NS(=O)(=O)c2cc1cc(Cl)c2O", "tgt": "ACLY (Homo sapiens (Human), UniProt P53396)", "reported": "> 7.70"}
{"structure-smiles": "C[C@@H]1COc2ccccc2-c2cc(c(F)cc2F)NS(=O)(=O)c2cc(cc(Cl)c2O)C(=O)N1", "tgt": "ACLY (Homo sapiens (Human), UniProt P53396)", "reported": "5.00 to 7.00"}
{"structure-smiles": "O=C1OCCOc2ccc(Br)cc2-c2cc(c(F)cc2F)NS(=O)(=O)c2cc1cc(Cl)c2O", "tgt": "ACLY (Homo sapiens (Human), UniProt P53396)", "reported": "7.00 to 7.70"}

Now for the compound whose pIC50 we want.
input: Would you kindly share the measured pIC50 for O=C1OCC2CN(C2)c2ccccc2-c2cc(c(F)cc2F)NS(=O)(=O)c2cc1cc(Cl)c2O ?
output: 7.00 to 7.70

----------
# tgt: ACLY (Homo sapiens (Human))
# experiment-summary: Human ACLY (hACLY) RF/MS activity assay
# Assay type: biochemical
# experimental-setup: 1 nM hACLY; 30 min pre-incubation; 15 μM Coenzyme A, 50 μM ATP, 50 μM citrate; CoA to Acetyl-CoA by RF/MS; read-out: RFMS IC50 GMean
pIC50: −log10 of the molar value.
Reported pIC50 is given for each of the following molecules.

Below are worked cases with known answers.
{"molecule": "O=C1NCCOc2cccc(c2)-c2cc(c(F)cc2F)NS(=O)(=O)c2cc1cc(Cl)c2O [Compound 3]", "tgt": "ACLY (Homo sapiens (Human))", "property": "pIC50", "reported": "5.00 to 7.00"}
{"molecule": "N#Cc1ccc2c(c1)-c1cc(c(F)cc1F)NS(=O)(=O)c1cc(cc(Cl)c1O)C(=O)OCCO2 [Compound 28]", "tgt": "ACLY (Homo sapiens (Human))", "property": "pIC50", "reported": "7.00 to 7.70"}
{"molecule": "O=C1OCCc2cc(F)ccc2-c2ccc(F)c(c2)NS(=O)(=O)c2cc1cc(Cl)c2O [Compound 73]", "tgt": "ACLY (Homo sapiens (Human))", "property": "pIC50", "reported": "7.00 to 7.70"}

Switching to the query record.
input: // returns reported pIC50 for input O=C1c2cc(Cl)c(O)c(c2)S(=O)(=O)Nc2cc(c(F)cc2F)-c2cccc3c2CN1C3 [Compound 89]
output: 5.00 to 7.00

----------
# tgt: UniProt:P53396
# experiment-summary: Human ACLY (hACLY) RF/MS activity assay
# Type: biochemical
# experimental-setup: 1 nM hACLY; 30 min pre-incubation; 15 μM Coenzyme A, 50 μM ATP, 50 μM citrate; CoA to Acetyl-CoA by RF/MS; read-out: RFMS IC50 GMean
property: IC50

{"structure-smiles": "Cc1cccc2c1-c1cc(c(F)cc1F)NS(=O)(=O)c1cc(cc(Cl)c1O)C(=O)OCCO2", "tgt": "UniProt:P53396", "IC50": "≥ 10000 nM"}

input: Which value of IC50 has been reported for O=C1OCCOc2cc(F)ccc2-c2ccc(F)c(c2)NS(=O)(=O)c2cc1cc(Cl)c2O in the records?
output: < 20 nM

input: For the compound O=C1OCCOc2ncccc2-c2cc(c(F)cc2F)NS(=O)(=O)c2cc1cc(Cl)c2O , what IC50 is on record?
output: < 20 nM

----------
# tgt: ACLY (Homo sapiens (Human))
# experiment-summary: Human ACLY (hACLY) RF/MS activity assay
# Format: biochemical
# experimental-setup: 1 nM hACLY; 30 min pre-incubation; 15 μM Coenzyme A, 50 μM ATP, 50 μM citrate; CoA to Acetyl-CoA by RF/MS; read-out: RFMS IC50 GMean
# Experimental: Compounds of the disclosure were evaluated for their efficacy in inhibiting hACLY using rapid fire mass spectrometry (RF/MS). The final reaction volume for each compound was 20 μl and consisted of buffer (50 mM Hepes pH 8.0, 10 mM MgCl2, 0.003% BSA, 0.01% Brij35, 50 mM NaCl, 4 mM DTT) and 1 nM hACLY, EV12992, PP6692) using Greiner, 384 well small volume, deep well plates (Cat #784201). […] Both the substrate (CoA) and product (Acetyl-CoA) were quantified, and given a ratio. […]
# IC50 per entry

Before answering, review these 3 worked examples.
{"molecule": "O=C1OCCCOc2ccccc2-c2cc(c(F)cc2F)NS(=O)(=O)c2cc1cc(Cl)c2O", "tgt": "ACLY (Homo sapiens (Human))", "property": "IC50", "reported": "< 20 nM"}
{"molecule": "O=C1OCCCc2c(sc3ccccc23)-c2cc(c(F)cc2F)NS(=O)(=O)c2cc1cc(Cl)c2O", "tgt": "ACLY (Homo sapiens (Human))", "property": "IC50", "reported": "20 to 100 nM"}
{"molecule": "O=C1OCCCOc2cc(F)ccc2-c2cc(c(F)cc2F)NS(=O)(=O)c2cc1cc(Cl)c2O", "tgt": "ACLY (Homo sapiens (Human))", "property": "IC50", "reported": "20 to 100 nM"}

input: Name the recorded IC50 for COc1ccc2cc1NS(=O)(=O)c1cc(cc(Cl)c1O)C(=O)OCCOc1ccccc1-2 .
output: < 20 nM

input: Query (molecule): COc1cc(F)c2cc1-c1ccccc1OCCOC(=O)c1cc(Cl)c(O)c(c1)S(=O)(=O)N2 ; field requested: IC50
output: 20 to 100 nM

input: Report IC50 for O=C1NCCOc2ccccc2-c2cc(c(F)cc2F)NC(=O)c2cc1ccc2O please.
output: ≥ 10000 nM

input: Which IC50 reading was recorded for the molecule N#Cc1ccc2c(c1)-c1cc(c(F)cc1F)NS(=O)(=O)c1cc(cc(Cl)c1O)C(=O)OC2 ?
output: 100 to 10000 nM

----------
# tgt: UniProt:P53396
# experiment-summary: InCell Pulse assay (permeate HEK293 cells, bind to and stabilize ACLY)
# Format: cell-based
# experimental-setup: HEK293 cells transfected with pICP-ACLY(FL)-ePL; 1 hour at 37° C., 55° C. heat pulse 10 minutes; read-out: InCell Pulse IC50 GMean
IC50 values for the compounds below.

Sample records with IC50:
{"compound": "O=C1OCCCc2c(sc3ccccc23)-c2cc(c(F)cc2F)NS(=O)(=O)c2cc1cc(Cl)c2O", "reported": "≥ 50 µM"}
{"compound": "O=C1c2cc(Cl)c(O)c(c2)S(=O)(=O)Nc2cc(c(F)cc2F)-c2cccc3c2CN1C3", "reported": "≥ 50 µM"}
{"compound": "CC1CCOC(=O)c2cc(Cl)c(O)c(c2)S(=O)(=O)Nc2cc(c(F)cc2F)-c2ccccc21 (single isomer, unassigned) [Compound 45]", "reported": "< 0.3 µM"}
{"compound": "O=C1OCc2ccccc2-c2cc(F)c(F)c(c2)NS(=O)(=O)c2cc1cc(Cl)c2O", "reported": "< 0.3 µM"}
{"compound": "O=C1OCCOc2ccccc2-c2ccc(F)c(c2)NS(=O)(=O)c2cc1cc(Cl)c2O", "reported": "< 0.3 µM"}

input: Given the compound O=C1OCCOc2ccccc2-c2ccc(C(F)(F)F)c(c2)NS(=O)(=O)c2cc1cc(Cl)c2O , what is its reported IC50?
output: < 0.3 µM

input: Entry O=C1OCCOc2ccc(C3CC3)cc2-c2cc(c(F)cc2F)NS(=O)(=O)c2cc1cc(Cl)c2O : reported IC50 = ?
output: 1 to 50 µM

input: Give the measured IC50 of O=C1NCCCOc2cccc(c2)-c2cc(c(F)cc2F)NS(=O)(=O)c2cc1cc(Cl)c2O .
output: ≥ 50 µM

----------
Overview of recorded pIC50 for various compounds
# tgt: ACLY (Homo sapiens (Human))
# experiment-summary: Human ACLY (hACLY) RF/MS activity assay
# Assay type: biochemical
# experimental-setup: 1 nM hACLY; 30 min pre-incubation; 15 μM Coenzyme A, 50 μM ATP, 50 μM citrate; CoA to Acetyl-CoA by RF/MS; read-out: RFMS IC50 GMean
pIC50: −log10 of the molar value.

{"compound": "O=C1OCCOc2ccccc2-c2ccc(F)c(c2)NS(=O)(=O)c2cc1ncc2O", "pIC50": "7.00 to 7.70"}
{"compound": "O=C1OCCCc2ccccc2-c2cc(c(F)cc2F)NS(=O)(=O)c2cc1cc(Cl)c2O", "pIC50": "7.00 to 7.70"}
{"compound": "O=C1OCc2cccc(c2)Oc2cc(c(F)cc2F)NS(=O)(=O)c2cc1cc(Cl)c2O", "pIC50": "5.00 to 7.00"}
{"compound": "O=C1NCCOc2ccccc2-c2cc(c(F)cc2F)NS(=O)(=O)c2cc1cc(Cl)c2OC(F)F", "pIC50": "≤ 5.00"}
{"compound": "O=C1OCc2ccccc2-c2cc(F)c(F)c(c2)NS(=O)(=O)c2cc1cc(Cl)c2O", "pIC50": "> 7.70"}

input: Lookup: pIC50 / ACLY (Homo sapiens (Human)) / O=C1OCCOc2ccc(Cl)cc2-c2ccc(F)c(c2)NS(=O)(=O)c2cc1cc(Cl)c2O
output: 7.00 to 7.70

input: Provide value of pIC50 for this record tested with ACLY (Homo sapiens (Human)): CC1CCOC(=O)c2cc(Cl)c(O)c(c2)S(=O)(=O)Nc2cc(c(F)cc2F)-c2ccccc21 (single isomer, unassigned) [Compound 45]
output: 7.00 to 7.70

input: Provide the documented pIC50 with ACLY (Homo sapiens (Human)) as the system for Nc1cc2cc(n1)S(=O)(=O)Nc1cc(c(F)cc1F)-c1ccccc1OCCOC2=O
output: ≤ 5.00

meta.source: patent US20250289793A1
